List of solvation free energy, 298 K values.
test: solvent given as SMILES
experimentalParameters: in CC(C)O
Kindly provide the numeric value in kcal/mol only, without the unit symbol.

compound: Cc1ccccn1
valueUnits: kcal/mol
solvation free energy, 298 K: -5.88

compound: N
valueUnits: kcal/mol
solvation free energy, 298 K: -2.37

compound: CC(C)CCO
valueUnits: kcal/mol
solvation free energy, 298 K: -6.51

compound: CCN(CC)CC
valueUnits: kcal/mol
solvation free energy, 298 K: -4.55

Which solvation free energy, 298 K is reported for this compound? C(=Cc1ccccc1)c1ccccc1
-9.74

What do we get for O=C(O)c1ccccc1O ?
-10.4

What do we get for CCC ?
-1.21
